Test system: cloned mammalian (mSIo or hSIo) BK channels
MEASUREMENT PROTOCOL: Increase of cloned BK-mediated outward current in Xenopus oocytes, two-electrode voltage clamp
Format: cell-based
CONDITION DESCRIPTION: at 20 μM; at least 5 oocytes; mSIo or hSIo expressed in Xenopus oocytes
Experimental: The ability of compounds described in the present invention to open BK channels and increase whole-cell outward (K^+) BK-mediated currents was assessed under voltage-clamp conditions by determining their ability to increase cloned mammalian (mSIo or hSIo) BK--mediated outward current heterologously expressed in Xenopus oocytes [Butler, A., et al., Science, 261:221-224 (1993); and Dworetzky, S. I., etal., Mol. Brain Res., 27: 189-193 (1994)]. […]
VALUE TYPE: BK Current, percent of control IBTX-sensitive current

{"columns": ["MOLECULE", "EXPERIMENTAL VALUE"],
 "data": [
  ["O=C1Nc2cc(C(F)(F)F)ccc2C1c1cc(Cl)ccc1O (racemic)", "+++ (+++ = >150%)"],
  ["COc1ccc(Cl)cc1C1(F)C(=O)Nc2cc(C(F)(F)F)ccc21 (racemic)", "++ (++ = 125-150%)"],
  ["O=C1Nc2cc(C(F)(F)F)ccc2C1(O)c1cc(Cl)ccc1O (single isomer, unassigned; (-)) [Example 13]", "++ (++ = 125-150%)"],
  ["O=C1Nc2cc(-c3ccccc3)ccc2C1c1cc(Cl)ccc1O (racemic)", "+++ (+++ = >150%)"],
  ["O=C1Nc2cc(C(F)(F)F)ccc2C1(O)c1cc(C(F)(F)F)ccc1O (racemic)", "++ (++ = 125-150%)"]
]}

Ask: Identify the reported BK Current, percent of control IBTX-sensitive current for the following entry. O=C1Nc2cc(Cl)cc(Cl)c2C1(O)c1cc(Cl)ccc1O (racemic)
Reply: + (+ = 100-125%)

Ask: Identify the reported BK Current, percent of control IBTX-sensitive current for the following entry. O=C1Nc2cc(Cl)cc(Cl)c2C1c1cc(Cl)ccc1O (racemic)
Reply: + (+ = 100-125%)

Ask: Identify the reported BK Current, percent of control IBTX-sensitive current for the following entry. O=C1Nc2cc(C(F)(F)F)ccc2C1(O)c1cc(Cl)ccc1O (racemic) [Example 3]
Reply: ++ (++ = 125-150%)

Ask: Identify the reported BK Current, percent of control IBTX-sensitive current for the following entry. O=C1Nc2c(C(F)(F)F)cccc2C1(O)c1cc(Cl)ccc1O (racemic)
Reply: + (+ = 100-125%)

Ask: Identify the reported BK Current, percent of control IBTX-sensitive current for the following entry. COc1ccc(Cl)cc1C1(F)C(=O)Nc2ccc(F)cc21 (racemic)
Reply: + (+ = 100-125%)

Ask: Identify the reported BK Current, percent of control IBTX-sensitive current for the following entry. O=C1Nc2c(ccc3ccccc23)C1(O)c1cc(Cl)ccc1O (racemic)
Reply: +++ (+++ = >150%)

Ask: Identify the reported BK Current, percent of control IBTX-sensitive current for the following entry. O=C1Nc2ccc3ccccc3c2C1c1cc(Cl)ccc1O (racemic)
Reply: +++ (+++ = >150%)

Ask: Identify the reported BK Current, percent of control IBTX-sensitive current for the following entry. O=C1Nc2cc(I)ccc2C1c1cc(Cl)ccc1O (racemic)
Reply: +++ (+++ = >150%)

Ask: Identify the reported BK Current, percent of control IBTX-sensitive current for the following entry. COc1ccc(Cl)cc1C1(O)C(=O)Nc2cc(C(F)(F)F)ccc21 (racemic)
Reply: + (+ = 100-125%)

FYI, the data here is from patent US5565483A.
